# measured target: Peroxisome proliferator-activated receptor alpha (Rattus norvegicus)
# Sequence (P37230 whole entry): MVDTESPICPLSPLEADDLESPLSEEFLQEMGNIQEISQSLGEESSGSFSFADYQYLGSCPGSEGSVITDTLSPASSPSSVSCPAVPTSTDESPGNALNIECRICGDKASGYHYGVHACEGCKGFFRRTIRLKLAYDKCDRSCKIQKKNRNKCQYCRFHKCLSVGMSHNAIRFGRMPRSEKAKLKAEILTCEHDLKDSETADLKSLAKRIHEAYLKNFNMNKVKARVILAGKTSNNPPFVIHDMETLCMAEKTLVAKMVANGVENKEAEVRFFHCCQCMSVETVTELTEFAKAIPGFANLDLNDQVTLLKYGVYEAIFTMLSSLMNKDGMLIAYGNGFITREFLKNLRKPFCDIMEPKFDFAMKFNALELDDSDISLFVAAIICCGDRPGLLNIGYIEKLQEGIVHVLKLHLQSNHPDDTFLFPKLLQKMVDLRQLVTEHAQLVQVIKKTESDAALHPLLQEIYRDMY
# measurement description: Agonist activity at rat PPARalpha in rat H4IIE cells assessed as gene induction
Below, each entry is listed alongside its reported pEC50.
Recall that pEC50 is obtained by taking minus log10 of the concentration measured in molar.

                                   compound  reported
0  CCN(C(=O)Nc1ccc(N(C)C)cc1)C1Cc2ccc(SC(C)(C)C(=O)O)cc2C1 (centres undefined)      6.93

Recorded pEC50 for CCCCCCCN(C(=O)Nc1ccc(SC)cc1)C1Cc2ccc(SC(C)(C)C(=O)O)cc2C1 (centres undefined) , please? 6.38

Give the measured pEC50 of CC(C)(Sc1ccc2c(c1)CC(NC(=O)Nc1ccc(OC(F)(F)F)cc1)C2)C(=O)O (centres undefined) . 7.02

Report pEC50 for CCCCCCCN(CCc1ccc(SC(C)(C)C(=O)O)cc1)C(=O)Nc1ccc(F)cc1F [GSK-9578] please. 6.78

Consider the compound CCCCCCCN(C(=O)Nc1ccc(N(C)C)cc1)C1Cc2ccc(SC(C)(C)C(=O)O)cc2C1 (centres undefined) and give its measured pEC50. 6.60

If you can, please state the reported pEC50 value of CCCCN(C(=O)Nc1ccc(C(C)C)cc1)C1Cc2ccc(SC(C)(C)C(=O)O)cc2C1 (centres undefined) . 6.59

Look up pEC50: CC(C)CCN(C(=O)Nc1ccc(OC(F)(F)F)cc1)C1Cc2ccc(SC(C)(C)C(=O)O)cc2C1 (centres undefined) 6.41

Name the recorded pEC50 for COCCN(C(=O)Nc1ccc(OC(F)(F)F)cc1)C1Cc2ccc(SC(C)(C)C(=O)O)cc2C1 (centres undefined) . 6.37
